Data provenance: paper PMC4490784

Target: CSK (Homo sapiens, UniProt P41240)
pIC50: −log10 of the molar value.
RESULT_TYPE: pIC50

Lab note: need pIC50 for N[C@H]1CC[C@H](Nc2cc(-c3cccc(NCc4cccc(F)c4)n3)c(Cl)cn2)CC1 on CSK (Homo sapiens, UniProt P41240), anyone have it?
< 5.00

###

Molecular target: TYK2(JH1domain-catalytic) (Homo sapiens)
RESULT_TYPE: IC50

Lab note: need IC50 for N[C@H]1CC[C@H](Nc2cc(-c3cccc(NCc4cccc(F)c4)n3)c(Cl)cn2)CC1 [i-CDK9] on TYK2(JH1domain-catalytic) (Homo sapiens), anyone have it?
> 10 µM

###

Target: PKN2 (Homo sapiens, UniProt Q16513)
Sequence (Q16513 whole entry): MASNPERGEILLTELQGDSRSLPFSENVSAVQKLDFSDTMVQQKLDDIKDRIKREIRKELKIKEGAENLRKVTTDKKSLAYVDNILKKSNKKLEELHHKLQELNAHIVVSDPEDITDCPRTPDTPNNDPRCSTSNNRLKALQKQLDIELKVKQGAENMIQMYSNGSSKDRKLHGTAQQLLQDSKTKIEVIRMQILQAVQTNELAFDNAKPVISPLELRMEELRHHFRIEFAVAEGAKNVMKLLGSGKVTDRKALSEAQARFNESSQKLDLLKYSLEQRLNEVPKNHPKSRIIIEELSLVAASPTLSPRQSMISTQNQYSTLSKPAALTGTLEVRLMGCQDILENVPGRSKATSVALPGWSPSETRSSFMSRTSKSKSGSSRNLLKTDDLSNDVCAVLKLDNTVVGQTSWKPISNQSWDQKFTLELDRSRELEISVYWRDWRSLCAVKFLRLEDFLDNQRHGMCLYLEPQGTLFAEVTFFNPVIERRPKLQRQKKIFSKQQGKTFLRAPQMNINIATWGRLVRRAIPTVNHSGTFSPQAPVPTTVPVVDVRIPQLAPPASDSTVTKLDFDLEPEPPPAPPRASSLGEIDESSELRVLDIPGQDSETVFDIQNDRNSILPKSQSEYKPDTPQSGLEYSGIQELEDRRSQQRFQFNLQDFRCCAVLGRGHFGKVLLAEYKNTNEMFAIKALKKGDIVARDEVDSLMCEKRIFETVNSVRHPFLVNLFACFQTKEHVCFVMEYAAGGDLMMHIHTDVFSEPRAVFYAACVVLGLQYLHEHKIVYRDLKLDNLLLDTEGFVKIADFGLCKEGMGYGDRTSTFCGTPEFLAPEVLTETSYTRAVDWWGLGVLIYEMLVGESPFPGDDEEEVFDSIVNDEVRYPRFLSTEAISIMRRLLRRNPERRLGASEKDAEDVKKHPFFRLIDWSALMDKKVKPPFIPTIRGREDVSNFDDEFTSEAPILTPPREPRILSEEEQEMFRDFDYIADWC
pIC50: −log10 of the molar value.
RESULT_TYPE: pIC50

Recorded pIC50 for N[C@H]1CC[C@H](Nc2cc(-c3cccc(NCc4cccc(F)c4)n3)c(Cl)cn2)CC1 [i-CDK9] , please?
< 5.00

###

Target: UniProt Q9Y6M4
pIC50: −log10 of the molar value.
RESULT_TYPE: pIC50

Recorded pIC50 for N[C@H]1CC[C@H](Nc2cc(-c3cccc(NCc4cccc(F)c4)n3)c(Cl)cn2)CC1 , please?
< 5.00

###

Protein target, amino acids: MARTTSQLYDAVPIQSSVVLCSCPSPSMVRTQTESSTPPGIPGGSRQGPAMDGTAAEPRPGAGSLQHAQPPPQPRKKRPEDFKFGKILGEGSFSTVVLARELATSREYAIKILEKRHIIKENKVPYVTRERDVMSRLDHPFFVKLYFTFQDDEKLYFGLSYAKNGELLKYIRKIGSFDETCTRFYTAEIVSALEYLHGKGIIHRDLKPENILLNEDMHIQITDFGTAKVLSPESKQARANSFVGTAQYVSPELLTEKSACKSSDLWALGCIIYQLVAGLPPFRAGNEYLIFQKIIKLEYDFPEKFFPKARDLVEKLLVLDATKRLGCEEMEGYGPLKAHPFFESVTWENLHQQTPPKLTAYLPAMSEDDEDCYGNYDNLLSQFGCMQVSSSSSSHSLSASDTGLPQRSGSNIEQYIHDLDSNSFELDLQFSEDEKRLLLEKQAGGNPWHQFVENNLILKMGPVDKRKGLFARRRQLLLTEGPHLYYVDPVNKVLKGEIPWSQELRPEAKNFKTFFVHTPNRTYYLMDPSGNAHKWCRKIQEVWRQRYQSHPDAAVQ
RESULT_TYPE: IC50

Recorded IC50 for N[C@H]1CC[C@H](Nc2cc(-c3cccc(NCc4cccc(F)c4)n3)c(Cl)cn2)CC1 [i-CDK9] , please?
> 10 µM

###

Biological target: CDK8-CycC (Homo sapiens, UniProt P49336)
pIC50: −log10 of the molar value.
RESULT_TYPE: pIC50

Recorded pIC50 for N[C@H]1CC[C@H](Nc2cc(-c3cccc(NCc4cccc(F)c4)n3)c(Cl)cn2)CC1 , please?
< 6.00

###

Biological target: UniProt:Q13557
RESULT_TYPE: IC50 (µM)
# unit: µM | format: bare number

Lab note: need IC50 for N[C@H]1CC[C@H](Nc2cc(-c3cccc(NCc4cccc(F)c4)n3)c(Cl)cn2)CC1 [i-CDK9] on UniProt:Q13557, anyone have it?
4

###

Molecular target: LYN (Homo sapiens, UniProt P07948)
pIC50: −log10 of the molar value.
RESULT_TYPE: pIC50

Recorded pIC50 for N[C@H]1CC[C@H](Nc2cc(-c3cccc(NCc4cccc(F)c4)n3)c(Cl)cn2)CC1 [i-CDK9] , please?
< 5.00

###

Biological target: ZAP70 (Homo sapiens)
Sequence (P43403 1-619): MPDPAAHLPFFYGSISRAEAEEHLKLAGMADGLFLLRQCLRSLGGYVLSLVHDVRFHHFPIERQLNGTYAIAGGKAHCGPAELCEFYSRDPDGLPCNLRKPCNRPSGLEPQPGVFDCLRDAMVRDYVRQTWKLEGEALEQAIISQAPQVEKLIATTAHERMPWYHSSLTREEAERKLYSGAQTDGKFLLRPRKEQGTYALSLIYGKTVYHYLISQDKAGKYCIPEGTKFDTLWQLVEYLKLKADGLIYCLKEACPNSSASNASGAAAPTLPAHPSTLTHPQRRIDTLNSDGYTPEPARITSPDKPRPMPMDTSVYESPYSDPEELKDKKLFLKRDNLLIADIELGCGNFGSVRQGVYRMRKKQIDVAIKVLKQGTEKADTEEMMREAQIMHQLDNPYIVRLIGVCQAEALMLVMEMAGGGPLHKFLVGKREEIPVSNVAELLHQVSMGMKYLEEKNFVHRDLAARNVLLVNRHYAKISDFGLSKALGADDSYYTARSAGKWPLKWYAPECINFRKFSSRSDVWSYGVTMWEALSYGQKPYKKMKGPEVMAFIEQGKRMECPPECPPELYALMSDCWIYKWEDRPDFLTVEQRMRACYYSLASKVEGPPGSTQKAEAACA
RESULT_TYPE: IC50

Lab note: need IC50 for N[C@H]1CC[C@H](Nc2cc(-c3cccc(NCc4cccc(F)c4)n3)c(Cl)cn2)CC1 on ZAP70 (Homo sapiens), anyone have it?
> 10 µM

###

Molecular target: FAK (Homo sapiens, UniProt Q05397)
Sequence (Q05397 whole entry): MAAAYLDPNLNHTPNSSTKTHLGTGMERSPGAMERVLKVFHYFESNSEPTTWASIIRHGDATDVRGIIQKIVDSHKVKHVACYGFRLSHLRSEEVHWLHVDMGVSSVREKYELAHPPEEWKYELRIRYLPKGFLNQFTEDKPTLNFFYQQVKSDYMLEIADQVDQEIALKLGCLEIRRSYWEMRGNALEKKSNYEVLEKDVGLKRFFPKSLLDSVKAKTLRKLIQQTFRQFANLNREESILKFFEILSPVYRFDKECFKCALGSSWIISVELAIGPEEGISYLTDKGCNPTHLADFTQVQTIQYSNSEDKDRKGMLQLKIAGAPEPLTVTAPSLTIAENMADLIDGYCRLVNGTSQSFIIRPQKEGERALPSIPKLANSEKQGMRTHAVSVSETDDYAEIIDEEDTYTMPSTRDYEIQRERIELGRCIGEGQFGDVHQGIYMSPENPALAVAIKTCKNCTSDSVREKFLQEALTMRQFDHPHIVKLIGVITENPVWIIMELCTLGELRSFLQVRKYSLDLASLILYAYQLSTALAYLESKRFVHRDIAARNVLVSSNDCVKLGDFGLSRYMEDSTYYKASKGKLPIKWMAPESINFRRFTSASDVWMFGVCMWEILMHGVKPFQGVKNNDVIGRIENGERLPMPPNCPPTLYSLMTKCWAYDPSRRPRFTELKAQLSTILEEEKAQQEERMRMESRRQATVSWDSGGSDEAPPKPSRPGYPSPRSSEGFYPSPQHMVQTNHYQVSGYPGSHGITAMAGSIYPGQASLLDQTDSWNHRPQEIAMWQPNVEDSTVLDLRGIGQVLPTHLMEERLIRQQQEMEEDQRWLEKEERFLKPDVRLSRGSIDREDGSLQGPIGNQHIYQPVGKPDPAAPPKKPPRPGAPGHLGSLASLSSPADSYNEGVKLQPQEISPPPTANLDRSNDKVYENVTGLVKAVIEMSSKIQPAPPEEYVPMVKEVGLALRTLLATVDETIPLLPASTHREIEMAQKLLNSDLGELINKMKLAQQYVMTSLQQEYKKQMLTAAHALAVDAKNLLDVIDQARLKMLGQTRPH
pIC50: −log10 of the molar value.
RESULT_TYPE: pIC50

Lab note: need pIC50 for N[C@H]1CC[C@H](Nc2cc(-c3cccc(NCc4cccc(F)c4)n3)c(Cl)cn2)CC1 on FAK (Homo sapiens, UniProt Q05397), anyone have it?
< 5.00

###

Biological target: SRC (Homo sapiens)
pIC50: −log10 of the molar value.
RESULT_TYPE: pIC50

Lab note: need pIC50 for N[C@H]1CC[C@H](Nc2cc(-c3cccc(NCc4cccc(F)c4)n3)c(Cl)cn2)CC1 on SRC (Homo sapiens), anyone have it?
< 5.00

###

Biological target: FLT3 (Homo sapiens, UniProt P36888)
pIC50: −log10 of the molar value.
RESULT_TYPE: pIC50

Lab note: need pIC50 for N[C@H]1CC[C@H](Nc2cc(-c3cccc(NCc4cccc(F)c4)n3)c(Cl)cn2)CC1 on FLT3 (Homo sapiens, UniProt P36888), anyone have it?
< 5.00

###

Biological target: MAPKAPK2 (Homo sapiens, UniProt P49137)
pIC50: −log10 of the molar value.
RESULT_TYPE: pIC50

Lab note: need pIC50 for N[C@H]1CC[C@H](Nc2cc(-c3cccc(NCc4cccc(F)c4)n3)c(Cl)cn2)CC1 on MAPKAPK2 (Homo sapiens, UniProt P49137), anyone have it?
< 5.00

###

Target: PCTK2 (Homo sapiens)
RESULT_TYPE: IC50

Recorded IC50 for N[C@H]1CC[C@H](Nc2cc(-c3cccc(NCc4cccc(F)c4)n3)c(Cl)cn2)CC1 , please?
> 79 nM

###

Target: PIM2 (Homo sapiens)
pIC50: −log10 of the molar value.
RESULT_TYPE: pIC50

Lab note: need pIC50 for N[C@H]1CC[C@H](Nc2cc(-c3cccc(NCc4cccc(F)c4)n3)c(Cl)cn2)CC1 on PIM2 (Homo sapiens), anyone have it?
< 5.00

###

Target: ROCK2 (Homo sapiens, UniProt O75116)
Construct: purchased DiscoveRx KINOMEscan
Sequence (O75116 whole entry): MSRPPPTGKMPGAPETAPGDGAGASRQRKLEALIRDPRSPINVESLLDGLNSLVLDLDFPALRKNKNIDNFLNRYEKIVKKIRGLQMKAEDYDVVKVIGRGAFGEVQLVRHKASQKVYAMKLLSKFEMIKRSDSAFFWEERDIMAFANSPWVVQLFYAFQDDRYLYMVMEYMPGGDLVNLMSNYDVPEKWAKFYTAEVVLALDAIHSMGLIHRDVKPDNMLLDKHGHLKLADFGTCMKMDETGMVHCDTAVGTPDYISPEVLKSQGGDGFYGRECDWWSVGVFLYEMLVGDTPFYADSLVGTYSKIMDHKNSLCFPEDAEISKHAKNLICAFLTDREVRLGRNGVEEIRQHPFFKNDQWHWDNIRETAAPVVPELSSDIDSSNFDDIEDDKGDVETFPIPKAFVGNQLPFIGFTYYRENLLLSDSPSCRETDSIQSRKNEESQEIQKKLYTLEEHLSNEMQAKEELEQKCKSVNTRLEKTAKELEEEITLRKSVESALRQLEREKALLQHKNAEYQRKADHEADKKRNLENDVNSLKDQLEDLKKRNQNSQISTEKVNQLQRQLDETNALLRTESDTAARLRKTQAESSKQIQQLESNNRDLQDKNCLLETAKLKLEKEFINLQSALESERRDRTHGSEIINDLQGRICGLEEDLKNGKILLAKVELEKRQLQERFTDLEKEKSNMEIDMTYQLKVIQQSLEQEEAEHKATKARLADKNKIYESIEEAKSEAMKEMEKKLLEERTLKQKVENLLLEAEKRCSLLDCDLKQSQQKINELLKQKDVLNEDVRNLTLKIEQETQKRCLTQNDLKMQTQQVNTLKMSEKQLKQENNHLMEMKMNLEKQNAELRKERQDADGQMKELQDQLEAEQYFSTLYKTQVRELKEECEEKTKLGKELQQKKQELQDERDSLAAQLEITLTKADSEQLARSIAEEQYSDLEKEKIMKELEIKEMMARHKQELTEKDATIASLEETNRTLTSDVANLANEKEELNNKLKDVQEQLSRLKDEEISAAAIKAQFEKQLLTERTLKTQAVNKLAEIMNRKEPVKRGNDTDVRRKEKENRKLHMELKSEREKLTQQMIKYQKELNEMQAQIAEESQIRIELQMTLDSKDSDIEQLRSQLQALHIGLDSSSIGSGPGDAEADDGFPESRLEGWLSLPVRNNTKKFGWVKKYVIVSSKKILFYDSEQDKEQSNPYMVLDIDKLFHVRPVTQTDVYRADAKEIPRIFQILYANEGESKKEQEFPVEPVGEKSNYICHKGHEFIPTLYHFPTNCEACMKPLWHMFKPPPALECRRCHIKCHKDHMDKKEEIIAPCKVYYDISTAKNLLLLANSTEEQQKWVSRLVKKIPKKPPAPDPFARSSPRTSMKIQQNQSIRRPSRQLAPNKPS
Experiment: biochemical binding or enzymatic assay
Conditions: Novartis
pIC50: −log10 of the molar value.
RESULT_TYPE: pIC50

Lab note: need pIC50 for N[C@H]1CC[C@H](Nc2cc(-c3cccc(NCc4cccc(F)c4)n3)c(Cl)cn2)CC1 [i-CDK9] on ROCK2 (Homo sapiens, UniProt O75116), anyone have it?
< 5.00

###

Target: YES (Homo sapiens)
Sequence (P07947 whole entry): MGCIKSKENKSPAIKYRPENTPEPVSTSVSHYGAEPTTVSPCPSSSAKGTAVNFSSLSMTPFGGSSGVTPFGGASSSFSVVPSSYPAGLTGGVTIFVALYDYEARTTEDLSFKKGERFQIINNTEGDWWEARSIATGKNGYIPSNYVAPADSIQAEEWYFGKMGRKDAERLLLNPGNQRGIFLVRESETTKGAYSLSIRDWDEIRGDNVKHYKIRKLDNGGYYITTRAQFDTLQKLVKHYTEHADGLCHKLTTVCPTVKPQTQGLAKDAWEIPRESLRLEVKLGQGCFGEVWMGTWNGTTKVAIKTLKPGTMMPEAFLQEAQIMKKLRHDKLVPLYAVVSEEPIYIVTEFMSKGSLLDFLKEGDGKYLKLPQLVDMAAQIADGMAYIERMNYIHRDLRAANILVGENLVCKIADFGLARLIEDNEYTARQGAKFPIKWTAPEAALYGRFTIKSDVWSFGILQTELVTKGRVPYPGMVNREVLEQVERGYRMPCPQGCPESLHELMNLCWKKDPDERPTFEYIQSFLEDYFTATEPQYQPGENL
RESULT_TYPE: IC50

Lab note: need IC50 for N[C@H]1CC[C@H](Nc2cc(-c3cccc(NCc4cccc(F)c4)n3)c(Cl)cn2)CC1 [i-CDK9] on YES (Homo sapiens), anyone have it?
> 10 µM

###

Biological target: ERK2 (Homo sapiens)
pIC50: −log10 of the molar value.
RESULT_TYPE: pIC50

Lab note: need pIC50 for N[C@H]1CC[C@H](Nc2cc(-c3cccc(NCc4cccc(F)c4)n3)c(Cl)cn2)CC1 on ERK2 (Homo sapiens), anyone have it?
< 5.00

###

Target: UniProt Q9HBH9
Sequence (Q9HBH9 whole entry): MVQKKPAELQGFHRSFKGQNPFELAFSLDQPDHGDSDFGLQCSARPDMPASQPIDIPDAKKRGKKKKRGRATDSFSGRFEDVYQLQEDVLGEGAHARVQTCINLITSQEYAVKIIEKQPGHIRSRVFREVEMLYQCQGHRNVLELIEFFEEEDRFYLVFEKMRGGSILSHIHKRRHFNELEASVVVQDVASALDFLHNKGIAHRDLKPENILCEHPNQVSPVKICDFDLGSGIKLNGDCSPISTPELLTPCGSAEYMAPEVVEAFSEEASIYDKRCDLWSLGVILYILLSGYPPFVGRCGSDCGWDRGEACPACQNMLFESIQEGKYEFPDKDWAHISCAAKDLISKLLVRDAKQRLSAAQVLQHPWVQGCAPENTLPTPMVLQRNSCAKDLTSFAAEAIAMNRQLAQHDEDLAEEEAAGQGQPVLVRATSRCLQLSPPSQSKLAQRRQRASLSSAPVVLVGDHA
RESULT_TYPE: IC50

Recorded IC50 for N[C@H]1CC[C@H](Nc2cc(-c3cccc(NCc4cccc(F)c4)n3)c(Cl)cn2)CC1 , please?
> 10 µM

###

Target: MAPKAPK5 (Homo sapiens)
Sequence (Q8IW41 whole entry): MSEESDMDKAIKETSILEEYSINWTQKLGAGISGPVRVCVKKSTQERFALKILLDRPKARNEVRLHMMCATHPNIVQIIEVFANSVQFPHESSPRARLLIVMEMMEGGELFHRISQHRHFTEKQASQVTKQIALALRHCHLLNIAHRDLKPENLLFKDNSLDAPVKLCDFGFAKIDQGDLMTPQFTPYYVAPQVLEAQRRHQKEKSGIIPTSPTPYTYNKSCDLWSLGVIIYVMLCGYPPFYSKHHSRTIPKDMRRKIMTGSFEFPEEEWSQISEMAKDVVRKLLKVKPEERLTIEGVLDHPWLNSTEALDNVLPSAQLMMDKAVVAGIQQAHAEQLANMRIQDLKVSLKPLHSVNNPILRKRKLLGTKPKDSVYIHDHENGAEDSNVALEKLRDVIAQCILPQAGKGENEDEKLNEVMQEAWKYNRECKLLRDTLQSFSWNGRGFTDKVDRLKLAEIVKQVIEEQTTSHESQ
RESULT_TYPE: IC50

Recorded IC50 for N[C@H]1CC[C@H](Nc2cc(-c3cccc(NCc4cccc(F)c4)n3)c(Cl)cn2)CC1 [i-CDK9] , please?
> 10 µM

###

Target: PAK2 (Homo sapiens)
pIC50: −log10 of the molar value.
RESULT_TYPE: pIC50

Recorded pIC50 for N[C@H]1CC[C@H](Nc2cc(-c3cccc(NCc4cccc(F)c4)n3)c(Cl)cn2)CC1 [i-CDK9] , please?
< 5.00
